Assay: Hydrolysis was studied in 0.02 M aqueous phosphate buffer (pH 7.4) at 37 degree celsius.
Assay type: ADME

{"compound": "CNC1CCCc2on(COC(=O)C(C)(C)C)c(=O)c21 (configuration not stated)", "half-life": "267 h"}
{"compound": "CNC1CCCc2onc(OCOC(=O)C(C)(C)C)c21 (configuration not stated)", "half-life": "75 h"}
